Reported values: pIC50 for Cholinesterase (Homo sapiens, UniProt P06276), one per item.
Value format note: pIC50 is -log10 of concentration (mol/L); just state the number.

INSERT INTO results (molecule, testsystem, recordedmeasurement) VALUES
  ('C/C=C1\[C@H]2C=C(C)C[C@]1(N)c1ccc(=O)[nH]c1C2', 'Cholinesterase (Homo sapiens, UniProt P06276)', 7.00);

Please look up its pIC50: `COc1ccc(-c2cc3c(c(=O)o2)C[C@]2(O)[C@@]4(C)C(=O)C=CC(C)(C)[C@]4(O)CC[C@@]2(C)O3)cc1OC`
4.74

----------
# testSystem: Acetylcholinesterase (Homo sapiens, UniProt P22303)
# Sequence (P22303 whole entry): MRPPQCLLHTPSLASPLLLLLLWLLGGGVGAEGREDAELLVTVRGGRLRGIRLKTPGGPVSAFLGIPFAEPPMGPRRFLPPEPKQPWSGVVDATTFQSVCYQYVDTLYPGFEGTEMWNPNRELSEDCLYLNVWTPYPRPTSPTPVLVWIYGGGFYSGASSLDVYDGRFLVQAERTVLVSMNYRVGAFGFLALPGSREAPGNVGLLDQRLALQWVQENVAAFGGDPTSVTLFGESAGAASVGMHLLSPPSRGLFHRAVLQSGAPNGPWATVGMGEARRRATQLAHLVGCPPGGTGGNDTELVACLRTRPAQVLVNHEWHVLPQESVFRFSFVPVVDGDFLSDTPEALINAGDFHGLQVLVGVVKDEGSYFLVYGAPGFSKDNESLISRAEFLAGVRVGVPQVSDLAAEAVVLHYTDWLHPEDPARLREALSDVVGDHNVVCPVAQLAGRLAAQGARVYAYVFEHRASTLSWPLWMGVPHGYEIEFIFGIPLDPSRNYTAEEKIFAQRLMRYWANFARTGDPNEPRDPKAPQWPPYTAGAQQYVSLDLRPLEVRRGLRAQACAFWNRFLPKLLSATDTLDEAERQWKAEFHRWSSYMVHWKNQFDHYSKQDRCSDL
readoutType: pIC50
Note on units: pIC50 is unitless, being -log10 of a concentration expressed in mol/L.

Find the measured pIC50: item `COc1cc(-c2cc3c(c(=O)o2)C[C@]2(O)[C@@]4(C)C(=O)C=CC(C)(C)[C@]4(O)CC[C@@]2(C)O3)cc(OC)c1OC` , target or system Acetylcholinesterase (Homo sapiens, UniProt P22303).
8.22
